# Test system: MDA-MB-231
# PROTOCOL DETAILS: Anti-cancer activity against human MDA-MB-231 cells incubated for 72 hrs by Cell Titer Glo assay
# Assay type: functional, cell-based
# CONDITION SET: MDA-MB-231, 72 h
ATTRIBUTE MEASURED: IC50 (µM)
Output spec: scalar in µM, unitless text.

The substance identified as `H-KKKKLKKILKKLFQFINQLDNQLQDIKQNK-NH2` registered its IC50 at 1

----------
# PROTOCOL DETAILS: Hemolytic activity against human RBC incubated for 1 hr by microplate reader analysis
# Format: toxicity, cell-based, Erythrocyte
# CONDITION SET: red blood cells (erythrocytes)
Below, each entry is listed with its recorded IC50 at 1 h.

The substance identified as `H-KKKKLKKILKKLFQFIQQLDQQLQDIKQQK-NH2` registered its IC50 at 1 h at > 50 µM

The substance identified as `H-KKKKLKKILKKLFQFINQLENQLQEIKQNK-NH2` registered its IC50 at 1 h at > 50 µM

----------
# System: MDA-MB-435
# PROTOCOL DETAILS: Anti-cancer activity against human MDA-MB-435 cells incubated for 72 hrs by Cell Titer Glo assay
# Type: functional, cell-based
# CONDITION SET: MDA-MB-435, 72 h
ATTRIBUTE MEASURED: IC50
Please answer in the form of a number followed by its unit of measurement.

For `H-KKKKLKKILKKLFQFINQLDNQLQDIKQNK-NH2` on MDA-MB-435, measured IC50 was 1000 nM

----------
# Tested on: SUD4
# PROTOCOL DETAILS: Anti-cancer activity against human SU-DHL-4 cells incubated for 24 hrs by WST assay
# Assay type: functional, cell-based
# CONDITION SET: SU-DHL-4, 24 h
ATTRIBUTE MEASURED: IC50 (nM)
Output spec: scalar in nM, unitless text.

The substance identified as `H-HHHHLKKILKKLFQFINQLDNQLQDIHHHH-OH` registered its IC50 at 1000

----------
# System: MOLM-13
# PROTOCOL DETAILS: Anti-cancer activity against human MOLM-13 cells incubated for 24 hrs by WST assay
# Format: functional, cell-based
# CONDITION SET: MOLM-13, 24 h
ATTRIBUTE MEASURED: IC50 (nM)
Output spec: scalar in nM, unitless text.

The substance identified as `H-HHHHLKKILKKLFQFINQLDNQLQDIHHHH-OH` registered its IC50 at 1000

----------
# PROTOCOL DETAILS: Toxicity against reconstructed human skin model assessed as irritation at 50 uM incubated for 1 hr followed by compound washout measured after 42 hrs by MTT assay
# Format: tissue-based, Skin of body
ATTRIBUTE MEASURED: Activity

Here are 4 substances together with their reported answers.
H-HHHHLKKILKKLFQFINQLDNQLQDIHHHH-OH	Non-Toxic
H-KKKKLKKILKKLFQFINQLDNQLQDIKKKK-NH2	Non-Toxic
H-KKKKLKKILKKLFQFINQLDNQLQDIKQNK-NH2	Non-Toxic
H-KKKKLKKILKKLFQFIQQLDQQLQDIKQQK-NH2	Non-Toxic

Could you now look at the following substance, please?
The substance identified as `H-KKKKKLKKILKKLFQFINQLDNQLQDIKKKKK-OH` registered its Activity at Non-Toxic
